Each recorded value in this set is attributed to paper PMC4032265.

# Lookup of reported inhibition at 10 µM keyed by entry
Target: UniProt:P46098
Sequence (P46098 24-478): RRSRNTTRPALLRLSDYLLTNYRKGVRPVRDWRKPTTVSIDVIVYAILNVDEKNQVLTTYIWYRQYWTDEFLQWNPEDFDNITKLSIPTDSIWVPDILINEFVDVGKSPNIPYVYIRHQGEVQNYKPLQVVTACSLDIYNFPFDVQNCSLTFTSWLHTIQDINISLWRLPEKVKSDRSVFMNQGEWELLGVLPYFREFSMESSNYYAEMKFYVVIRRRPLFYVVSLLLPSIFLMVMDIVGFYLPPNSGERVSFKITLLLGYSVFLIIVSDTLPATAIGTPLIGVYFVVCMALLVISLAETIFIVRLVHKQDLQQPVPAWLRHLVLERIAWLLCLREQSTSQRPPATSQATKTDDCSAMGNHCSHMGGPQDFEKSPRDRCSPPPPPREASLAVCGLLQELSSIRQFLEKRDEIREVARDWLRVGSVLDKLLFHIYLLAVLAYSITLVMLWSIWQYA
Assay: PDSP radioligand binding, 5HT3 ion channel
Conditions: read-out: % inhibition at 10 µM; single concentration 10 µM
Property label: inhibition at 10 µM (%)

INSERT INTO measurements (substance_smiles, study_system, property_label, endpoint_unit, measured_result) VALUES
  ('Clc1cccc(CNc2nc(Cl)nc3[nH]cnc23)c1', 'UniProt:P46098', 'inhibition at 10 µM', '%', 28),
  ('O[C@@H]1[C@H](O)[C@@H]2C[C@@H]2[C@H]1n1cnc2c(NC(C3CC3)C3CC3)nc(Cl)nc21', 'UniProt:P46098', 'inhibition at 10 µM', '%', 3),
  ('CNC(=O)[C@@]12C[C@@H]1[C@@H](n1cnc3c(NC)nc(C#Cc4ccc(F)c(F)c4)nc31)[C@H](O)[C@@H]2O', 'UniProt:P46098', 'inhibition at 10 µM', '%', 2),
  ('CNC(=O)[C@@]12C[C@@H]1[C@@H](n1cnc3c(NCc4cccc(Cl)c4)nc(C#Cc4ccc(F)cc4)nc31)[C@H](O)[C@@H]2O', 'UniProt:P46098', 'inhibition at 10 µM', '%', 26),
  ('O[C@@H]1[C@H](O)[C@@H]2C[C@@H]2[C@H]1n1cnc2c(NCc3cccc(Cl)c3)nc(C#Cc3ccc(F)c(F)c3)nc21', 'UniProt:P46098', 'inhibition at 10 µM', '%', 0);
